Known log K (IAM) of a selection of compounds
Test: IAM chromatography on new IAM.PC.DD2 columns (gradient HPLC, CHI (IAM))
Format: physicochemical
Measurement conditions: constant values of the calibration set; CHI IAM converted to octanol/water lipophilicity scale by equation 7
Please give the numeric answer without any surrounding text.

Here's what some known entries look like.
Compound: CCCC(=O)c1ccccc1 [Butyrophenone]
log K (IAM): 2.62
//
Compound: CCCCCCCC(=O)c1ccccc1 [Octanophenone]
log K (IAM): 4.97
//
Compound: CC(=O)c1ccccc1 [Acetophenone]
log K (IAM): 1.67
//
Compound: CCCCCCC(=O)c1ccccc1 [Heptanophenone]
log K (IAM): 4.30
//
Compound: CCCCC(=O)c1ccccc1 [Valerophenone]
log K (IAM): 3.16
//
Compound: CC(=O)Nc1ccccc1 [Acetanilide]
log K (IAM): 1.45

Turning now to a further record.
Would you kindly share the measured log K (IAM) for CC(=O)Nc1ccc(O)cc1 [Paracetamol] ?
1.20

* * *

Target or test system: human serum albumin (HSA) (Homo sapiens)
Test: Protein binding on chemically bonded HSA column (Chiralpak-HSA)
Measurement conditions: remeasured in this study, pH 7.4
Sorting guide: entries reporting log K HSA beneath 0.9 go in the t pile, the rest go in the f pile.

Take a look at these entries with their results.
Compound: CCN(CC)CCNC(=O)c1ccc(NC(C)=O)cc1 [Acecainide]
Label class: t
--
Compound: O=C1NC(=O)C(c2ccccc2)(c2ccccc2)N1
Label class: t
--
Compound: NC(N)=Nc1nc(CSCCC(N)=NS(N)(=O)=O)cs1
Label class: f
--
Compound: COc1ccc(Cc2nccc3cc(OC)c(OC)cc23)cc1OC
Label class: t

Consider NS(=O)(=O)c1cc2c(cc1Cl)NCNS2(=O)=O [Hydrochlorothiazide] . Does its log K HSA lie strictly below 0.9?
f

Consider `O=c1n(CCCN2CCN(c3cccc(Cl)c3)CC2)nc2ccccn12` . Does its log K HSA lie strictly below 0.9?
f

* * *

Test: IAM chromatography on new IAM.PC.DD2 columns (gradient HPLC, CHI (IAM))
Assay type: physicochemical
Measurement conditions: new IAM.PC.DD2 column batch R20511-014-3, pH 7.4
Sorting guide: entries reporting R20511-014-3 CHI (IAM) beneath 20 go in the True pile, the rest go in the False pile.

Compound: O=c1n(CCCN2CCN(c3cccc(Cl)c3)CC2)nc2ccccn12
Label class: False
--
Compound: COc1ccc(NS(=O)(=O)c2ccc(N)cc2)nn1
Label class: True
--
Compound: C[C@H]1C[C@H]2[C@@H]3CCC4=CC(=O)C=C[C@]4(C)[C@@]3(F)[C@@H](O)C[C@]2(C)[C@@]1(O)C(=O)CO
Label class: False
--
Compound: O=C(O)Cc1ccccc1Nc1c(Cl)cccc1Cl
Label class: False

Consider CCCCNCC(O)c1ccc(O)cc1 (stereo not drawn) . Does its R20511-014-3 CHI (IAM) lie strictly below 20?
True

Consider `NC(N)=Nc1nc(CSCCC(N)=NS(N)(=O)=O)cs1` . Does its R20511-014-3 CHI (IAM) lie strictly below 20?
True

* * *

Target or test system: human serum albumin (HSA) (Homo sapiens, UniProt P02768)
Sequence (P02768 25-609): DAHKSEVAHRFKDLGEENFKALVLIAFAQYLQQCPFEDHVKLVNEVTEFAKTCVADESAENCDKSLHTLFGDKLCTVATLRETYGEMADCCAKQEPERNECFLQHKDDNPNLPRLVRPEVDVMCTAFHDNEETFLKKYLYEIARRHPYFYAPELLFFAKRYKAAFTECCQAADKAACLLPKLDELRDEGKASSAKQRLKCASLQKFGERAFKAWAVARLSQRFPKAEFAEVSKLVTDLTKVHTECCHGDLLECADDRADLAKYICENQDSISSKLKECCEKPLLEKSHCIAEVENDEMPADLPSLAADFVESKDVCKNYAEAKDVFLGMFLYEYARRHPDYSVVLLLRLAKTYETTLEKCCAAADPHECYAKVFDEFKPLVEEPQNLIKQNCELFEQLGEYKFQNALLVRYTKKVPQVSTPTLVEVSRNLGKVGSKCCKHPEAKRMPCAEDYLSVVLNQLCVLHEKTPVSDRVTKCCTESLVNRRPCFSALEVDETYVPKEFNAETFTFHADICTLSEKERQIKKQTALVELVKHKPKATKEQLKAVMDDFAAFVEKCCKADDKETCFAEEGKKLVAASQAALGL
Test: Protein binding on chemically bonded HSA column (Chiralpak-HSA)
Measurement conditions: remeasured in this study, pH 7.4
Decide by log K HSA: equal to or exceeding 3 means TRUE, less means FALSE.

Take a look at these entries with their results.
Compound: CC(C(=O)O)c1ccc(-c2ccccc2)c(F)c1 (stereo not shown) [Flurbiprofen]
Target or test system: human serum albumin (HSA) (Homo sapiens, UniProt P02768)
Label class: TRUE
//
Compound: Nc1cc(N2CCCCC2)nc(N)[n+]1[O-] [Minoxidil]
Target or test system: human serum albumin (HSA) (Homo sapiens, UniProt P02768)
Label class: TRUE
//
Compound: Cc1ccc(C)c(OCCCC(C)(C)C(=O)O)c1 [Gemfibrozil]
Target or test system: human serum albumin (HSA) (Homo sapiens, UniProt P02768)
Label class: TRUE
//
Compound: CC(C)NCC(O)COc1cccc2[nH]ccc12 (stereo not shown) [Pindolol]
Target or test system: human serum albumin (HSA) (Homo sapiens, UniProt P02768)
Label class: FALSE
//
Compound: CCOC(=O)C1=C(C)NC(C)=C(C(=O)OC)C1c1cccc([N+](=O)[O-])c1 (stereo not shown) [Nitrendipine]
Target or test system: human serum albumin (HSA) (Homo sapiens, UniProt P02768)
Label class: FALSE

Answer whether log K HSA of CCCN(CCC)S(=O)(=O)c1ccc(C(=O)O)cc1 [Probenecid] is greater than or equal to 3.
FALSE

Answer whether log K HSA of COC1=CC(=O)C[C@@H](C)[C@]12Oc1c(Cl)c(OC)cc(OC)c1C2=O [Griseofulvin] is greater than or equal to 3.
FALSE

Answer whether log K HSA of CCn1nc(C(=O)O)c(=O)c2cc3c(cc21)OCO3 [Cinoxacin] is greater than or equal to 3.
FALSE

Answer whether log K HSA of COc1ccc(NS(=O)(=O)c2ccc(N)cc2)nn1 [Sulfamethoxypyridazine] is greater than or equal to 3.
TRUE

Answer whether log K HSA of C=CCOc1ccc(CC(=O)O)cc1Cl [Alclofenac] is greater than or equal to 3.
TRUE
